measured_on: Nanoluciferase-BRD9 fusion protein (Homo sapiens (Human), UniProt Q9H8M2)
Sequence (Q9H8M2 whole entry, the tested form may be a part): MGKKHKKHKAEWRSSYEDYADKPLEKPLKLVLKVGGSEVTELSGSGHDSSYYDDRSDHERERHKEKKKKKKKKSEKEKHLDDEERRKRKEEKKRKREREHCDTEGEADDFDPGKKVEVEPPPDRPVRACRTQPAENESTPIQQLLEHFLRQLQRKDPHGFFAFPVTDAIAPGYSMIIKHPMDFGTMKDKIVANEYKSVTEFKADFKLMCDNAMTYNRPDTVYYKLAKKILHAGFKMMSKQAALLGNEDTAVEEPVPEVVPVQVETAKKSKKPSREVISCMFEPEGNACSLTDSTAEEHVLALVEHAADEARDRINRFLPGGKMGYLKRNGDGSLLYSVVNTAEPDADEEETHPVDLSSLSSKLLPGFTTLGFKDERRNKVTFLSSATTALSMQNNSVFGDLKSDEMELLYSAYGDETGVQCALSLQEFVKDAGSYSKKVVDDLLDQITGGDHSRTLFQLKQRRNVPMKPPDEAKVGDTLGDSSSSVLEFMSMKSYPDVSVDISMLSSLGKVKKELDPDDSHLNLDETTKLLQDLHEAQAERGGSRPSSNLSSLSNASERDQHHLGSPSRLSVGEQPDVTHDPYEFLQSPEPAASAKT
assay_info: SYO1 BRD9 NanoLuc degradation assay
Type: cell-based
condition_set: Table 5A; SYO-1 cells expressing 3×FLAG-NLuc-BRD9, 6 hours; read-out: SYO1 BRD9-NanoLuc degradation IC50
assay_readout: DC50

COc1cc(-c2cn(C)c(=O)c3cnccc23)cc(OC)c1CN1CCC(OC2CCN(C(=O)CCOCCOc3cccc4c3C(=O)N(C3CCC(=O)NC3=O)C4=O)C2)CC1 (centres unmarked); 10 to 100 nM
COc1cc(-c2cn(C)c(=O)c3cnccc23)cc(OC)c1CN(C)C1CCC2CN(C(=O)CCOCCOc3cccc4c3C(=O)N(C3CCC(=O)NC3=O)C4=O)CC21 (centres unmarked); 10 to 100 nM
COc1cc(-c2cn(C)c(=O)c3cnccc23)cc(OC)c1CN(C)CC1CC2CN(C(=O)CCOCCOc3cccc4c3C(=O)N(C3CCC(=O)NC3=O)C4=O)C[C@H]2C1 (some centres unmarked); 10 to 100 nM
COc1cc(-c2cn(C)c(=O)c3cnccc23)cc(OC)c1CN1CCC2(C[C@@H]2NC(=O)CCOCCOc2cccc3c2C(=O)N(C2CCC(=O)NC2=O)C3=O)C1 (some centres unmarked); 100 to 1000 nM

Field: next molecule
Entry COc1cc(-c2cn(C)c(=O)c3cnccc23)cc(OC)c1CN(C)CC1CC12CCN(C(=O)CCOCCOc1cccc3c1C(=O)N(C1CCC(=O)NC1=O)C3=O)CC2 (centres unmarked) ; DC50 = 10 to 100 nM

---

measured_on: BRD9 bromodomain (Homo sapiens (Human), UniProt Q9H8M2)
Sequence (Q9H8M2 133-239): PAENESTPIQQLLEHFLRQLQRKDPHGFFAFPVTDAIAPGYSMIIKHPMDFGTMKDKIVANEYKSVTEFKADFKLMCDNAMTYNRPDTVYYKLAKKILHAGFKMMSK
assay_info: BRD9 bromodomain TR-FRET competition binding assay
condition_set: Table 4; competition with biotinylated ligand, 3 nM Flag-BRD9, 90 minutes
assay_readout: IC50

COc1cc(-c2cn(C)c(=O)c3cnccc23)cc(OC)c1CN1CC(C(=O)N(C)CCCCCNc2cccc3c2C(=O)N(C2CCC(=O)NC2=O)C3=O)C1 (stereo not drawn); < 10 nM
COc1cc(-c2cn(C)c(=O)c3cnccc23)cc(OC)c1CN1CC[C@H]1CN(C)Cc1cccc2c1C(=O)N(C1CCC(=O)NC1=O)C2=O (stereo partly drawn); < 10 nM
COc1cc(-c2cn(C)c(=O)c3cnccc23)cc(OC)c1CN1CC2CN(C(=O)CCOCCOc3cccc4c3C(=O)N(C3CCC(=O)NC3=O)C4=O)CCC21 (stereo not drawn); < 10 nM
COc1cc(-c2cn(C)c(=O)c3cnccc23)cc(OC)c1CN1CCC2(C[C@H]2NC(=O)CCOCCOc2ccc3c(c2)C(=O)N(C2CCC(=O)NC2=O)C3=O)C1 (stereo partly drawn); 10 to 100 nM
COc1cc(-c2cn(C)c(=O)c3cnccc23)cc(OC)c1CN1CCC2(CC1)CN(C(=O)CCOCCOc1cccc3c1C(=O)N(C1CCC(=O)NC1=O)C3=O)C2 (stereo not drawn); < 10 nM

Summary for this molecule, COc1cc(-c2cn(C)c(=O)c3cnccc23)cc(OC)c1CN(C)C1CC2CC1CN2C(=O)CCOCCOc1ccc2c(c1)C(=O)N(C1CCC(=O)NC1=O)C2=O (stereo not drawn) : IC50 is 10 to 100 nM

Please fill in: IC50 reported for COc1cc(-c2cn(C)c(=O)c3cnccc23)cc(OC)c1CN1CC2C1CCN2C(=O)CCOCCOc1cccc2c1C(=O)N(C1CCC(=O)NC1=O)C2=O (stereo not drawn) = < 10 nM

Reported IC50 ( COc1cc(-c2cn(C)c(=O)c3cnccc23)cc(OC)c1CN1CC2(CC(NC(=O)CCOCCOc3ccc4c(c3)C(=O)N(C3CCC(=O)NC3=O)C4=O)C2)C1 (stereo not drawn) ) = < 10 nM

Value of measured IC50 for the entry COc1cc(-c2cn(C)c(=O)c3cnccc23)cc(OC)c1CN1CC(C(=O)NCCCCCCCCNc2cccc3c2C(=O)N(C2CCC(=O)NC2=O)C3=O)C1 (stereo not drawn) [Compound D1, formic acid] : 10 to 100 nM

Record COc1cc(-c2cn(C)c(=O)c3cnccc23)cc(OC)c1CN1CCC2(CCN(C(=O)CCOCCOc3cccc4c3C(=O)N(C3CCC(=O)NC3=O)C4=O)C2)C1 (stereo not drawn) . Reported IC50: < 10 nM
